assay protocol: Inhibition of full length chicken Hsp90beta (1 to 728 amino acids)
Parameters: species or system Gallus gallus
measure name: EC50 (µM)
Write the number in µM without appending the unit.

Given item CO[C@@H]1[C@@H](OC(N)=O)[C@@H](O)[C@H](Oc2ccc3c(O)c(NC(=O)c4ccc(O)c(CC=C(C)C)c4)c(=O)oc3c2C)OC1(C)C [NOVOBIOCIN] , the value recorded as its EC50 is 700

====

system under test: Heat shock protein HSP90 (Homo sapiens) (UniProt P07900+P08238)
assay protocol: Inhibition of HSP90 in human PC3-MM2 cells expressing luciferase assessed as reduction in heat-denatured lucifearse refolding incubated for 1 hr by luciferase rematuration assay
Type: cell-based
Calls of active or inactive are those of the source. The calls are words filed in the database; no cut-off is given here.
Thanks in advance; please answer with one of these: active, inactive

Example cases with answers are listed next.
structure_smiles=CN1CCC(Oc2ccc(-c3ccc(NC(=O)c4cn(Cc5ccccc5)nn4)cc3)c(-c3cccc(C(F)(F)F)c3)c2)CC1 discrete_label=active
structure_smiles=CN1CCC(Oc2ccc(-c3cccc(NC(=O)c4ccc(Br)cc4)c3)c(-c3cccc(C(F)(F)F)c3)c2)CC1 discrete_label=active

Entry "CN1CCC(Oc2ccc(-c3cccc(NC(=O)c4cn(Cc5ccc(C(C)(C)C)cc5)nn4)c3)c(-c3cccc(C(F)(F)F)c3)c2)CC1" : call = ?
inactive

Entry "CN1CCC(Oc2ccc(-c3ccc(NC(=O)c4cn(Cc5ccc([N+](=O)[O-])cc5)nn4)cc3)c(-c3cccc(C(F)(F)F)c3)c2)CC1" : call = ?
active

Entry "CN1CCC(Oc2ccc(-c3ccc(NC(=O)c4ccc(Br)cc4)cc3)c(-c3cccc(C(F)(F)F)c3)c2)CC1" : call = ?
active

Entry "CN1CCC(Oc2ccc(-c3ccc(NC(=O)c4cn(Cc5ccc(C(C)(C)C)cc5)nn4)cc3)c(-c3cccc(C(F)(F)F)c3)c2)CC1" : call = ?
inactive

Entry "COc1ccc(Cn2cc(C(=O)Nc3ccc(-c4ccc(OC5CCN(C)CC5)cc4-c4cccc(C(F)(F)F)c4)cc3)nn2)cc1" : call = ?
active
